The origin of these recorded values is PubChem BioAssay (NCI).

System: NCI-H460 lung
Test: NCI tumour cell line growth inhibition, 48 h
The reader will find reported TGI values listed item by item below.

molecule | recordedResult
COc1ccc2cc(C(C)C(=O)N3CCOC3=O)ccc2c1 (stereo unspecified) | > 100 µM
O=[N+]([O-])/C(C(Cl)=C(Cl)Cl)=C(\N1CCCCC1)n1cncn1 | 72.1 µM
C=CCOc1ccc(C2C(C(=O)OCC)C(=O)CC(C)(O)C2C(=O)OCC)cc1OC (stereo unspecified) | > 100 µM
O=C(c1ccccc1)C1OC12C(=O)Nc1ccccc12 (stereo unspecified) | > 100 µM
O=C(CCC1OCCO1)Nc1cc(NCc2ccccc2)ccc1OCc1ccccc1 | > 100 µM
C#Cc1c(I)n(C2OC(CO[Si](C)(C)C(C)(C)C)C3OC(C)(C)OC32)c(=O)[nH]c1=O (stereo unspecified) | 40.4 µM

(Q) Which TGI value is on record for CCCCON(OC(=O)c1ccc2ccc3cccc4ccc1c2c34)C(C)=O ?
(A) > 100 µM

(Q) Which TGI value is on record for O=C1NC(=O)C(CC2CCCCCCCCCCC2=O)C(=O)N1 (stereo unspecified) ?
(A) > 100 µM

(Q) Which TGI value is on record for COc1cccc(/C=N/n2c(C)n[nH]c2=O)c1 ?
(A) > 100 µM

(Q) Which TGI value is on record for O=c1cc(NC2CCN(CCCc3ccccc3)CC2)c2cc(Cl)ccc2o1 ?
(A) 29.6 µM

(Q) Which TGI value is on record for CSc1sc2ccccc2[s+]1 ?
(A) > 100 µM
